- System under test: BRAF V600E (Homo sapiens, UniProt P15056, V600E)
- Construct: expressed in transfected cells
- Sequence (P15056 whole entry V600E): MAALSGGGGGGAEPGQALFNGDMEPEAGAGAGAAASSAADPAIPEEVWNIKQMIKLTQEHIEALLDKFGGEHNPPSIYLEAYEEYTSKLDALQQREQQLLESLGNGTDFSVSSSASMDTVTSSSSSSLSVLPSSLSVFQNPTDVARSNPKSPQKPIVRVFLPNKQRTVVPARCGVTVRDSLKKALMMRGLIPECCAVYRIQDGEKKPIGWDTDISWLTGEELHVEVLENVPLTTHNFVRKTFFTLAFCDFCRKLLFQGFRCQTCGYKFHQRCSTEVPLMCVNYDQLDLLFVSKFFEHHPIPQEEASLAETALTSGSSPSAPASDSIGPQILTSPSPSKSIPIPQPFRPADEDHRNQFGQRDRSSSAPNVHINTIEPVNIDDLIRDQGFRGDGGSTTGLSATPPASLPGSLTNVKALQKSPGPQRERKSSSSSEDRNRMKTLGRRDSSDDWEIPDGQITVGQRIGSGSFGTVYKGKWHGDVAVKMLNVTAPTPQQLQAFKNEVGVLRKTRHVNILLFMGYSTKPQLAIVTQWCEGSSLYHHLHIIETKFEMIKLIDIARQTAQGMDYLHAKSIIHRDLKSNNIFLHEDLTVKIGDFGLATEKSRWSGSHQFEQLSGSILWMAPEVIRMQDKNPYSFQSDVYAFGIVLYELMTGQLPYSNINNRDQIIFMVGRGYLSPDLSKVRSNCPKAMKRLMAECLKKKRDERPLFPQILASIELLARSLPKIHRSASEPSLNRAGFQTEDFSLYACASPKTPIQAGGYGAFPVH
- Procedure details: Cellular assay of target protein degradation, T-Rex 293 cells stably transfected with HA-BRAF_V600E (HA immunofluorescence, high content imaging)
- Assay type: cell-based
- Condition summary: maximum degradation observed, T-Rex 293 HA-BRAF V600E
As shown below, each of these compounds has a reported Dmax value.

- Compound: "O=C1CCC(N2Cc3cc(N4CCC(CN5CC[C@@H]6CN(c7ccc(-c8cnc9[nH]cc(C(=O)c%10c(F)ccc(NS(=O)(=O)N%11CC[C@@H](F)C%11)c%10F)c9c8)cc7)C[C@@H]6C5)CC4)ccc3C2=O)C(=O)N1 (some centres unmarked)"
  Dmax: "35 to 70%"

Ask: Query: Dmax; subject: O=C1CCN(c2ccc(N3CCC(CN4CC5(C4)CN(c4ccc(-c6cnc7[nH]cc(C(=O)c8c(F)ccc(NS(=O)(=O)N9CC[C@@H](F)C9)c8F)c7c6)cc4)C5)CC3)cc2F)C(=O)N1
Result: 35 to 70%

====

Form field: Dmax (one value per entry).
- System under test: BRAF V600E (Homo sapiens, UniProt P15056, V600E)
- Construct: expressed in transfected cells
- Procedure details: Cellular assay of target protein degradation, T-Rex 293 cells stably transfected with HA-BRAF_V600E (HA immunofluorescence, high content imaging)
- Format: cell-based
- Condition summary: maximum degradation observed, T-Rex 293 HA-BRAF V600E

Below: 5 compounds and their reported Dmax.
- Compound: "O=C1CCC(N2Cc3cc(OCCCCN4CCN(c5ccc(-c6cnc7[nH]cc(C(=O)c8c(F)ccc(NS(=O)(=O)N9CC[C@@H](F)C9)c8F)c7c6)cc5F)CC4)ccc3C2=O)C(=O)N1 (stereo partly drawn) [Compound 113]"
  System under test: "BRAF V600E (Homo sapiens, UniProt P15056, V600E)"
  Result: "35 to 70%"
- Compound: "COc1cc(-c2cnc3[nH]cc(C(=O)c4c(F)ccc(NS(=O)(=O)N5CC[C@@H](F)C5)c4F)c3c2)ccc1N1CCC(CN2CCC(c3ccc4c(c3)CN([C@H]3CCC(=O)NC3=O)C4=O)CC2)CC1 [Compound 256]"
  System under test: "BRAF V600E (Homo sapiens, UniProt P15056, V600E)"
  Result: "35 to 70%"
- Compound: "COc1cc(OCCN2CCN(CCOc3ccc(-c4cnc5[nH]cc(C(=O)c6c(F)ccc(NS(=O)(=O)N7CC[C@@H](F)C7)c6F)c5c4)cc3)CC2)cc2c1C(=O)N([C@H]1CCC(=O)NC1=O)C2 [Compound 44]"
  System under test: "BRAF V600E (Homo sapiens, UniProt P15056, V600E)"
  Result: "35 to 70%"
- Compound: "O=C1CCC(c2ccc(C3CCN(CCC4CCN(c5ccc(-c6cnc7[nH]cc(C(=O)c8c(F)ccc(NS(=O)(=O)N9CC[C@@H](F)C9)c8F)c7c6)cc5)CC4)CC3)cc2F)C(=O)N1 (stereo partly drawn) [Compound 178]"
  System under test: "BRAF V600E (Homo sapiens, UniProt P15056, V600E)"
  Result: "< 35%"
- Compound: "O=C1CCC(NC(=O)c2ccc(N3CCC(CN4CC5(C4)CN(c4ccc(-c6cnc7[nH]cc(C(=O)c8c(F)ccc(NS(=O)(=O)N9CC[C@@H](F)C9)c8F)c7c6)cc4)C5)CC3)cn2)C(=O)N1 (stereo partly drawn) [Compound 354]"
  System under test: "BRAF V600E (Homo sapiens, UniProt P15056, V600E)"
  Result: "< 35%"

Ask: Request - read-out Dmax | tested on BRAF V600E (Homo sapiens, UniProt P15056, V600E) | compound COc1cc(N2CC3(CN(CC4CCN(c5ccc(-c6cnc7[nH]cc(C(=O)c8c(F)ccc(NS(=O)(=O)N9CC[C@@H](F)C9)c8F)c7c6)cc5)CC4)C3)C2)cc(F)c1C(=O)N[C@H]1CCC(=O)NC1=O [Compound 347]
Result: 35 to 70%

Ask: Observed Dmax on BRAF V600E (Homo sapiens, UniProt P15056, V600E) for O=C1CCC(N2Cc3cc(C4CCN(CC5CCN(c6cnc(-c7cnc8[nH]cc(C(=O)c9c(F)ccc(NS(=O)(=O)N%10CC[C@@H](F)C%10)c9F)c8c7)nc6)CC5)CC4)ccc3C2=O)C(=O)N1 (stereo partly drawn) [Compound 215] , please.
Result: 35 to 70%

Ask: # returns recorded Dmax (system: BRAF V600E (Homo sapiens, UniProt P15056, V600E)) for CN(CCN1CCN(c2ccc(-c3cnc4[nH]cc(C(=O)c5c(F)ccc(NS(=O)(=O)N6CC[C@@H](F)C6)c5F)c4c3)cc2)CC1)[C@H]1CC[C@H](Oc2ccc3c(c2)CN(C2CCC(=O)NC2=O)C3=O)CC1 (stereo partly drawn) [Compound 195]
Result: 35 to 70%

Ask: Enter reported Dmax observed with BRAF V600E (Homo sapiens, UniProt P15056, V600E) for CCCS(=O)(=O)Nc1ccc(F)c(C(=O)c2c[nH]c3ncc(-c4ccc(N5CC6(CN(CC7CCN(c8cc9c(c(OC)c8)C(=O)N([C@H]8CCC(=O)NC8=O)C9)CC7)C6)C5)cc4)cc23)c1F [Compound 237]
Result: 35 to 70%

Ask: Lab note: need Dmax with BRAF V600E (Homo sapiens, UniProt P15056, V600E) for entry COc1cc(C2CCN(CC3CCN(c4ccc(-c5cnc6[nH]cc(C(=O)c7c(F)ccc(NS(=O)(=O)N8CC[C@@H](F)C8)c7F)c6c5)cc4F)CC3)CC2)cc2c1C(=O)N(C1CCC(=O)NC1=O)C2 (stereo partly drawn) [Compound 163] , please look it up.
Result: 35 to 70%

Ask: GET /values?readout=Dmax&system=BRAF V600E (Homo sapiens, UniProt P15056, V600E)&item= O=C1CC[C@H](NC(=O)N2CCCc3c(N4CCC(CN5CCN(c6ccc(-c7cnc8[nH]cc(C(=O)c9c(F)ccc(NS(=O)(=O)N%10CC[C@@H](F)C%10)c9F)c8c7)cc6)CC5)CC4)ccnc32)C(=O)N1 [Compound 371]
Result: > 70%

Ask: For the record COc1cc(N2CC3(C2)CN(CC2CCN(c4ccc(-c5cnc6[nH]cc(C(=O)c7c(F)ccc(NS(=O)(=O)N8CC[C@@H](F)C8)c7F)c6c5)cc4)CC2)[C@@H]3C)cc2c1C(=O)N(C1CCC(=O)NC1=O)C2 (stereo partly drawn) [Compound 20] , what value of Dmax is listed for BRAF V600E (Homo sapiens, UniProt P15056, V600E)?
Result: 35 to 70%

Ask: Could you share what Dmax was measured for CCCS(=O)(=O)Nc1ccc(F)c(C(=O)c2c[nH]c3ncc(-c4ccc(N5CC6(CN(CC7CCN(c8cc9c(c(OC)c8)C(=O)N([C@@H]8CCC(=O)NC8=O)C9)CC7)C6)C5)cc4)cc23)c1F [Compound 238] , tested on BRAF V600E (Homo sapiens, UniProt P15056, V600E)?
Result: 35 to 70%

Ask: Short answer please: Dmax, BRAF V600E (Homo sapiens, UniProt P15056, V600E), entry O=C1CC[C@@H](N2Cc3cc(C[C@H](O)CN4CCC(c5ccc(-c6cnc7[nH]cc(C(=O)c8c(F)ccc(NS(=O)(=O)N9CC[C@@H](F)C9)c8F)c7c6)cc5)CC4)ccc3C2=O)C(=O)N1 [Compound 116]
Result: 35 to 70%

Ask: Missing value: Dmax, BRAF V600E (Homo sapiens, UniProt P15056, V600E), entry O=C1CC[C@@H](NC(=O)c2ccc(N3CC4(CN(CC5CCN(c6ccc(-c7cnc8[nH]cc(C(=O)c9c(F)ccc(NS(=O)(=O)N%10CC[C@@H](F)C%10)c9F)c8c7)cc6)CC5)C4)C3)cn2)C(=O)N1 [Compound 346] . Fill in?
Result: < 35%

Ask: Form entry - test system: BRAF V600E (Homo sapiens, UniProt P15056, V600E); read-out: Dmax; compound: O=C1CC[C@@H](N2Cc3cc(C4CN(CC5CCN(c6ccc(-c7cnc8[nH]cc(C(=O)c9c(F)ccc(NS(=O)(=O)N%10CC[C@@H](F)C%10)c9F)c8c7)cc6)CC5)C4)ccc3C2=O)C(=O)N1 [Compound 84]
Result: 35 to 70%

Ask: For BRAF V600E (Homo sapiens, UniProt P15056, V600E), provide Dmax of O=C1CC[C@H](N2Cc3cc(N4CC(CN5CCN(C6(c7ncc(-c8cnc9[nH]cc(C(=O)c%10c(F)ccc(NS(=O)(=O)N%11CC[C@@H](F)C%11)c%10F)c9c8)cn7)CC6)CC5)C4)ccc3C2=O)C(=O)N1 [Compound 202] please.
Result: 35 to 70%

Ask: Param readout = Dmax; param system = BRAF V600E (Homo sapiens, UniProt P15056, V600E); param query = C[C@H]1CCCN1S(=O)(=O)Nc1ccc(F)c(C(=O)c2c[nH]c3ncc(-c4ccc(N5CCC(CN6CCC(c7ccc8c(c7)CN(C7CCC(=O)NC7=O)C8=O)CC6)CC5)cc4)cc23)c1F (stereo partly drawn) [Compound 264] ; response: value
Result: 35 to 70%
